assay: VP16 transactivation reporter inhibitors, counter-screen for LRH-1 inverse agonist project, cell-based, luminescence, high throughput (AID 651615); details: Gal4-VP16 luciferase reporter cells, at 3.6 µM, hits give high values
I'd appreciate it if you could supply inhibition values for the items below.
Report the figure in % without appending any unit label.

Query block: Endpoint output: inhibition of COc1cccc2c1C(=O)c1c(O)c3c(c(O)c1C2=O)CC(O)(C(C)=O)CC3OC1CC(O)C(O)C(C)O1 (configuration not stated) . Value?
Result block: 16.1

Query block: Moving on to the next compound: Cc1ccc(N2CC(C(=O)Nc3nc4ccc(S(C)(=O)=O)cc4s3)CC2=O)cc1C (configuration not stated)
Result block: -2.05

Query block: Then what about the compound CS(=O)(=O)N1CCCC(c2nc(-c3ccc(S(=O)(=O)NCc4ccccc4)cc3)no2)C1 (configuration not stated) ?
Result block: 37.8

Query block: Param item: Cc1cccc(NC(=O)c2cc(Cl)ccc2[N+](=O)[O-])c1
Result block: 33.2

Query block: Okay, and COc1ccc(C(=O)Nc2cnccn2)cc1[N+](=O)[O-] ?
Result block: 4.88

Query block: Check CC1CCC2(CC1)NC(=O)N(CC(=O)Nc1ccc(N3CCOCC3)cc1)C2=O (configuration not stated) too.
Result block: -8.77

Query block: Do the same for CC(=O)NC(c1cccc([N+](=O)[O-])c1)c1ccc2cccnc2c1O (configuration not stated) please
Result block: 83.9

Query block: Likewise for CCN1/C(=C\c2ccc3cc(C)ccc3[n+]2CC)Sc2cc(C)c(C)cc21 ?
Result block: 65.6

Query block: Same again, this time with O=C(NCc1cccnc1)c1cccn2c(=O)c3sccc3nc12
Result block: 1.7

Query block: How about COc1cc(-c2cnc3c(NC=O)cc(-c4ccccc4Cl)cn23)cc(OC)c1OC ?
Result block: -21.3

Query block: Input C/C(=N\NC(N)=S)c1ccc(-n2ccnc2)cc1
Result block: -13.1

Query block: What would you report for O=C(CN1C(=O)C(c2ccc(F)cc2)=NC12CCCC2)Nc1ccc(F)cc1 ?
Result block: 38.4

Query block: Likewise for CC1CC(C)C[N+](=C2C=C(N3CCCC3)CC(C)(C)C2)C1 (configuration not stated) ?
Result block: 91.2

Query block: What do you have for C=CCNC(=S)N/N=C/c1ccc(N(CC)Cc2ccccc2)cc1 ?
Result block: 6.68

Query block: Moving on to CCCCNC(=O)COC(=O)c1c2c(nc3ccccc13)/C(=C\c1cccs1)CC2
Result block: 26.5

Query block: Repeat for the following compound: O=C(COc1cccc2c1CCNC2=O)Nc1cccc(C(F)(F)F)c1
Result block: -20.7

Query block: And then Cc1onc(-c2c(F)cccc2Cl)c1C(=O)Oc1ccccc1 , what is it?
Result block: 11.2

Query block: Param item: O=C(Sc1cccc2cccnc12)c1ccccc1Br
Result block: 88

Query block: Okay, and CCC(C)NC(=O)c1ccc2c(c1)N(Cc1ccccc1)C(=O)CS2 (configuration not stated) ?
Result block: 3.22

Query block: Okay, and CCCCCCCCCCn1c2c(c(=N)c3c1CCC3)CCC2 ?
Result block: 95.2

Query block: Same lookup for CCN1C(=O)c2cccc3c(N)ccc1c23 , please.
Result block: -37.8

Query block: Now consider COc1cccc(CNc2nc3cc(-c4cnn(Cc5ccccc5)c4)sc3c(=O)n2C)c1 and answer again.
Result block: 46.9
